- targetOrTestSystem: Orexin/Hypocretin receptor type 1 (Homo sapiens) (UniProt O43613)
- experimentDescription: Agonist activity at OX1 receptor (unknown origin) expressed in RD-HGA16 cells assessed as calcium mobilization at 10 uM by fluorescence assay
- Format: functional, cell-based
The source made the active and inactive calls. The rule behind the calls is not given here.
measure: Activity

* COc1ccc(CC2c3cc(OS(=O)(=O)c4ccccc4)c(OC)cc3CCN2CC(=O)NCc2ccccc2)cc1OC (stereo not drawn) | inactive
* COc1ccc(CC2c3cc(OCc4ccccn4)c(OC)cc3CCN2CC(=O)NCc2ccccc2)cc1OC (stereo not drawn) | inactive
* COc1ccc(CC2c3cc(OC)c(OC)cc3CCN2CC(=O)Nc2ccccc2-c2ccccc2)cc1OC (stereo not drawn) | inactive
* CCCOc1cc2c(cc1OC)CCN(CC(=O)NCc1ccccn1)C2Cc1ccc(OC)c(OC)c1 (stereo not drawn) | inactive
* COc1ccc(CC2c3cc(OC)c(OC)cc3CCN2CC(=O)NCc2ccc(F)cc2)cc1OC (stereo not drawn) | inactive
* COc1ccc(CC2c3cc(OC)c(OC)cc3CCN2CC(=O)NCc2ccccc2)cc1OC (stereo not drawn) | inactive
* CCCC(=O)Oc1cc2c(cc1OC)CCN(CC(=O)NCc1ccccc1)C2Cc1ccc(OC)c(OC)c1 (stereo not drawn) | inactive
* COc1ccc(CC2c3cc(OS(=O)(=O)C(F)(F)F)c(OC)cc3CCN2CC(=O)NCc2ccccc2)cc1OC (stereo not drawn) | inactive
* CCCCCCOc1cc2c(cc1OC)CCN(CC(=O)NCc1ccccc1)C2Cc1ccc(OC)c(OC)c1 (stereo not drawn) | inactive
* CCCCOc1cc2c(cc1OC)CCN(CC(=O)NCc1ccccc1)C2Cc1ccc(OC)c(OC)c1 (stereo not drawn) | inactive
* COc1ccc(CC2c3cc(OC)c(OC)cc3CCN2CC(=O)Nc2cccc3ccccc23)cc1OC (stereo not drawn) | inactive
* CCCOc1cc2c(cc1OC)CCN(CC(=O)NCc1cccnc1)C2Cc1ccc(OC)c(OC)c1 (stereo not drawn) | inactive
* CCOc1cc2c(cc1OC)CCN(CC(=O)NCc1cccnc1)C2Cc1ccc(OC)c(OC)c1 (stereo not drawn) | inactive
* COc1ccc(CC2c3cc(OCc4cccnc4)c(OC)cc3CCN2CC(=O)NCc2ccccc2)cc1OC (stereo not drawn) | inactive
* COc1ccc(CC2c3cc(OC)c(OC)cc3CCN2CC(=O)NC2CCCc3ccccc32)cc1OC (stereo not drawn) | inactive
* CCOc1cc2c(cc1OC)CCN(CC(=O)NCc1ccccn1)C2Cc1ccc(OC)c(OC)c1 (stereo not drawn) | inactive
* CCCOc1cc2c(cc1OC)CCN(CC(=O)NCc1ccccc1)C2Cc1ccc(OC)c(OC)c1 (stereo not drawn) | inactive
* COc1ccc(CC2c3cc(OCc4ccccc4)c(OC)cc3CCN2CC(=O)NCc2ccccc2)cc1OC (stereo not drawn) | inactive

###

- targetOrTestSystem: Orexin/Hypocretin receptor type 1 (Homo sapiens)
- Sequence (whole entry): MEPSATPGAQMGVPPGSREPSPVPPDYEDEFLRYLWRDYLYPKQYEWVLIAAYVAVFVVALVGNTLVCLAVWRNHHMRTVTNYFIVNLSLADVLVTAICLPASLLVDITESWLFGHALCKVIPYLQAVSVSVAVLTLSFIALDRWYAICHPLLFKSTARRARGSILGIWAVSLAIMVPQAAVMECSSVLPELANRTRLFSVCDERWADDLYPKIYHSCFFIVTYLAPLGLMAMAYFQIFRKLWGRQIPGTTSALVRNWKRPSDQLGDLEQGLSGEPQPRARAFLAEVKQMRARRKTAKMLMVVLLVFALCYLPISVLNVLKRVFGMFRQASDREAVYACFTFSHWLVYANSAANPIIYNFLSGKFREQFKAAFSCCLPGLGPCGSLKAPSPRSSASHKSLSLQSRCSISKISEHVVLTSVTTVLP
- experimentDescription: Antagonist activity at OX1 receptor (unknown origin) expressed in RD-HGA16 cells assessed as inhibition orexin A-induced calcium mobilization by fluorescence assay
- Format: functional, cell-based
So basically, the class depends on measured Ke(app), and the ranges are lower band (below 40 nM), central band (40 nM to below 3000 nM), upper band (3000 nM or more)

- CCCOc1cc2c(cc1OC)CCN(CC(=O)NCc1ccccn1)C2Cc1ccc(OC)c(OC)c1 (configuration not stated): lower band
- COc1ccc(CC2c3cc(OC)c(OC)cc3CCN2CC(=O)NC2CC(C)Nc3ccccc32)cc1OC (configuration not stated): upper band
- CCOc1cc2c(cc1OC)CCN(CC(=O)NCc1ccccn1)C2Cc1ccc(OC)c(OC)c1 (configuration not stated): central band
- COc1ccc(CC2c3cc(OCCCCOc4ccccc4)c(OC)cc3CCN2CC(=O)NCc2ccccc2)cc1OC (configuration not stated): central band
- COc1ccc(CC2c3cc(OC)c(OC)cc3CCN2CC(=O)NCc2ccc(N(C)C)cc2)cc1OC (configuration not stated): upper band
- COc1ccc(CC2c3cc(OC)c(OC)cc3CCN2CC(=O)N[C@@H](C)c2ccccc2)cc1OC (single isomer, unassigned; diastereomer 1): upper band
- CNC(=O)CNC(=O)CN1CCc2cc(OC)c(OC)cc2C1Cc1ccc(OC)c(OC)c1 (configuration not stated): upper band
- COc1ccc(CC2c3cc(OC)c(OC)cc3CCN2CC(=O)NCCc2ccccc2)cc1OC (configuration not stated): upper band
- COc1ccc(CC2c3cc(OC)c(OC)cc3CCN2CC(=O)N[C@@H](C)c2ccccc2)cc1OC (single isomer, unassigned; diastereomer 2): central band
- COc1ccc(CC2c3cc(OC)c(OC)cc3CCN2CC(=O)OCc2ccccc2)cc1OC (configuration not stated): upper band
- COc1ccc(CC2c3cc(OS(=O)(=O)C(F)(F)F)c(OC)cc3CCN2CC(=O)NCc2ccccc2)cc1OC (configuration not stated): lower band
- COc1ccc(CC2c3cc(OS(=O)(=O)c4ccc(C)cc4)c(OC)cc3CCN2CC(=O)NCc2ccccc2)cc1OC (configuration not stated): central band
- COc1ccc(CC2c3cc(OCc4cccnc4)c(OC)cc3CCN2CC(=O)NCc2ccccc2)cc1OC (configuration not stated): central band
- COc1ccc(CC2c3cc(OS(=O)(=O)c4ccccc4)c(OC)cc3CCN2CC(=O)NCc2ccccc2)cc1OC (configuration not stated): lower band
- COc1ccc(CC2c3cc(OCC(F)(F)F)c(OC)cc3CCN2CC(=O)NCc2ccccn2)cc1OC (configuration not stated): lower band
